Tested on: SNB-75
TEST PROTOCOL: NCI tumour cell line growth inhibition, 48 h
Counter-ions that a name gives are not always drawn. Active and inactive are the calls of the source. No stated cut-off is given here; in the data, active = GI50 up to about 1.1 µM and inactive = higher. Residues, ends and D or L forms follow the SMILES beside them. *: point of attachment. Boc = CC(C)(C)OC(=O)*; OBn = c1ccc(CO*)cc1
QUANTITY: GI50

- COMPOUND: "Cc1ccnc(NC(=S)Nc2ccc([N+](=O)[O-])cc2)c1"
  TARGET OF ASSAY: "SNB-75"
  QUANTITY: "GI50"
  RESULT: "44.6 µM (inactive)"
- COMPOUND: "CC(C)(C)c1cc(-c2ccc(-c3cc(C(C)(C)C)c(O)c(C(C)(C)C)c3)cc2)cc(C(C)(C)C)c1O"
  TARGET OF ASSAY: "SNB-75"
  QUANTITY: "GI50"
  RESULT: "> 100 µM (inactive)"
- COMPOUND: "COc1ccc2cc3[n+](cc2c1OC)CCc1cc2c(cc1-3)OCO2 [BERBERINE SULFATE]"
  TARGET OF ASSAY: "SNB-75"
  QUANTITY: "GI50"
  RESULT: "27.5 µM (inactive)"
- COMPOUND: "Cc1ccc(S(=O)(=O)Nn2c(S)c(C#N)c(-c3ccc(Cl)cc3)c(C#N)c2=O)cc1"
  TARGET OF ASSAY: "SNB-75"
  QUANTITY: "GI50"
  RESULT: "33.8 µM (inactive)"
- COMPOUND: "CSC(=S)NN=C1CCCCC1"
  TARGET OF ASSAY: "SNB-75"
  QUANTITY: "GI50"
  RESULT: "50.6 µM (inactive)"
- COMPOUND: "O=C1c2ccccc2C(O)(O)C1(O)C1(O)C(=O)c2ccccc2C1(O)O (configuration not stated)"
  TARGET OF ASSAY: "SNB-75"
  QUANTITY: "GI50"
  RESULT: "15.6 µM (inactive)"
- COMPOUND: "COc1ccc2c(c1)N=C1CSC(c3ccccc3Cl)N1C2 (configuration not stated)"
  TARGET OF ASSAY: "SNB-75"
  QUANTITY: "GI50"
  RESULT: "9.91 µM (inactive)"
- COMPOUND: "CC1=C(C(N)=O)C(c2ccncc2)C(C#N)C(=O)N1 (configuration not stated)"
  TARGET OF ASSAY: "SNB-75"
  QUANTITY: "GI50"
  RESULT: "> 100 µM (inactive)"
- COMPOUND: "CC(=O)N(C(C)=O)C1=C2c3ccccc3N(S(=O)(=O)c3ccccc3)C2n2c(=O)n(-c3ccccc3)c(=O)n2C1 (configuration not stated)"
  TARGET OF ASSAY: "SNB-75"
  QUANTITY: "GI50"
  RESULT: "14 µM (inactive)"
- COMPOUND: "O=C(c1ccc([N+](=O)[O-])cc1)C(Br)C(Br)c1ccnc2ccccc12 (configuration not stated)"
  TARGET OF ASSAY: "SNB-75"
  QUANTITY: "GI50"
  RESULT: "4.06 µM (inactive)"
- COMPOUND: "O=C(O)c1ccccc1CC1Cc2ccccc2C1=O (configuration not stated)"
  TARGET OF ASSAY: "SNB-75"
  QUANTITY: "GI50"
  RESULT: "64.7 µM (inactive)"
- COMPOUND: "CC1=NN(C(=O)CC(=O)NC(=O)CC(=O)Nc2ccccc2F)C(=O)C1/N=N/c1ccc([N+](=O)[O-])cc1 (configuration not stated)"
  TARGET OF ASSAY: "SNB-75"
  QUANTITY: "GI50"
  RESULT: "34.2 µM (inactive)"
- COMPOUND: "CCOC(=O)c1c(C)n(CCN2CCN(C)CC2)c2ccc(OC)cc12"
  TARGET OF ASSAY: "SNB-75"
  QUANTITY: "GI50"
  RESULT: "24.8 µM (inactive)"
- COMPOUND: "COc1ccccc1NC(=O)C1=C(C)NC(C)=C(C(=O)Nc2ccccc2OC)C1c1ccco1"
  TARGET OF ASSAY: "SNB-75"
  QUANTITY: "GI50"
  RESULT: "3.37 µM (inactive)"
- COMPOUND: "NS(=O)(=O)c1ccc(NC(=S)NC=C2C(=O)c3ccccc3C2=O)cc1"
  TARGET OF ASSAY: "SNB-75"
  QUANTITY: "GI50"
  RESULT: "19.4 µM (inactive)"
- COMPOUND: "S=c1sc2c(S)nc(S)nc2n1-c1ccccc1"
  TARGET OF ASSAY: "SNB-75"
  QUANTITY: "GI50"
  RESULT: "69.8 µM (inactive)"
- COMPOUND: "Nc1ccc(-c2ccc(Nc3cc(S(=O)(=O)O)c(N)c4c3C(=O)c3ccccc3C4=O)cc2)c(S(=O)(=O)O)c1"
  TARGET OF ASSAY: "SNB-75"
  QUANTITY: "GI50"
  RESULT: "> 100 µM (inactive)"
- COMPOUND: "O=C(O)c1cc(O)nc(SCc2ccccc2)n1"
  TARGET OF ASSAY: "SNB-75"
  QUANTITY: "GI50"
  RESULT: "> 100 µM (inactive)"
- COMPOUND: "Cc1ccc2c(c1)C(=O)C1(Cc3ccccc3C1=O)C2 (configuration not stated)"
  TARGET OF ASSAY: "SNB-75"
  QUANTITY: "GI50"
  RESULT: "67.1 µM (inactive)"
- COMPOUND: "O=c1c2c(-c3ccccc3)onc2n(-c2ccccc2)c(=O)n1-c1ccccc1"
  TARGET OF ASSAY: "SNB-75"
  QUANTITY: "GI50"
  RESULT: "27.8 µM (inactive)"
- COMPOUND: "C=C(C)[C@H]1Cc2c(ccc3c2O[C@@H]2COc4cc(OC)c(OC)cc4[C@@H]2C3=O)O1"
  TARGET OF ASSAY: "SNB-75"
  QUANTITY: "GI50"
  RESULT: "0.152 µM (active)"
- COMPOUND: "COC1C=COC2(C)Oc3c(C)c(O)c4c(c3C2=O)/C(=N/C2CCC(O)OC2C)C=C(NC(=O)/C(C)=C\\C(=O)C2CC2C(O)C(C)C(O)C(C)C(OC(C)=O)C1C)C4=O (configuration not stated)"
  TARGET OF ASSAY: "SNB-75"
  QUANTITY: "GI50"
  RESULT: "3.09 µM (inactive)"
- COMPOUND: "C=CC(C)(O)CCC1C(=C)C(O)CC2C(C)(C)CCCC12C (configuration not stated)"
  TARGET OF ASSAY: "SNB-75"
  QUANTITY: "GI50"
  RESULT: "48.3 µM (inactive)"
- COMPOUND: "O=C(Cc1ccccc1)NN1C(=O)C(Cl)C1c1cc(Br)ccc1O (configuration not stated)"
  TARGET OF ASSAY: "SNB-75"
  QUANTITY: "GI50"
  RESULT: "10.4 µM (inactive)"
- COMPOUND: "CCCCCCCC(CC(=O)NC(CO)C(=O)NC(CO)CC(C)C)OC(=O)CC(CCCCCCC)OC(=O)CC(CCCCCCC)OC1OC(C)C(O)C(OC2OC(C)C(O)C(O)C2OC(C)=O)C1O (configuration not stated)"
  TARGET OF ASSAY: "SNB-75"
  QUANTITY: "GI50"
  RESULT: "4.29 µM (inactive)"
- COMPOUND: "O=C1NC2(CCCCC2)C2CCCCCC12 (configuration not stated)"
  TARGET OF ASSAY: "SNB-75"
  QUANTITY: "GI50"
  RESULT: "> 100 µM (inactive)"
- COMPOUND: "CC12CC(=O)Nc3ccccc3N1C(c1ccccc1)=NO2 (configuration not stated)"
  TARGET OF ASSAY: "SNB-75"
  QUANTITY: "GI50"
  RESULT: "> 100 µM (inactive)"
- COMPOUND: "Cc1ccc(-c2nnc(CCCCCCCCc3nnc(-c4ccc(C)cc4O)n3N)n2N)c(O)c1"
  TARGET OF ASSAY: "SNB-75"
  QUANTITY: "GI50"
  RESULT: "33.9 µM (inactive)"
- COMPOUND: "C/C(=N/NC(=O)c1ccncc1)c1ccc(NC(=O)C(=O)Nn2c(S)nc3ccccc3c2=O)cc1"
  TARGET OF ASSAY: "SNB-75"
  QUANTITY: "GI50"
  RESULT: "> 100 µM (inactive)"
- COMPOUND: "COc1cc2c(c(OC)c1OC)C(=O)[C@H](O)[C@H]2NC(N)=O"
  TARGET OF ASSAY: "SNB-75"
  QUANTITY: "GI50"
  RESULT: "23.3 µM (inactive)"
- COMPOUND: "COC(=O)CCC(C)C1CCC2C3C(C[C@H](OC(C)=O)[C@]12C)[C@@]1(C)CCC2(C[C@H]1C[C@H]3OC(C)=O)OOC1(CC[C@]3(C)C4C[C@H](OC(C)=O)[C@]5(C)C(C(C)CCC(=O)OC)CCC5C4[C@H](OC(C)=O)C[C@@H]3C1)OO2 (some centres not stated)"
  TARGET OF ASSAY: "SNB-75"
  QUANTITY: "GI50"
  RESULT: "68.4 µM (inactive)"
- COMPOUND: "Cc1cc(=O)oc2c(CNC(Cc3ccccc3)C(=O)O)c(O)ccc12 (configuration not stated)"
  TARGET OF ASSAY: "SNB-75"
  QUANTITY: "GI50"
  RESULT: "82.2 µM (inactive)"
- COMPOUND: "N#CC(=N)c1ncn(-c2ccc(N)cc2)c1N"
  TARGET OF ASSAY: "SNB-75"
  QUANTITY: "GI50"
  RESULT: "> 100 µM (inactive)"
- COMPOUND: "CC1C(NNc2ccccc2)Oc2cc3c(cc2C1c1ccccc1O)OCO3 (configuration not stated)"
  TARGET OF ASSAY: "SNB-75"
  QUANTITY: "GI50"
  RESULT: "10.1 µM (inactive)"
- COMPOUND: "O=C1OC(c2ccc(Cl)cc2)(c2ccc(Cl)cc2)c2c1ccc1ccccc21"
  TARGET OF ASSAY: "SNB-75"
  QUANTITY: "GI50"
  RESULT: "36.7 µM (inactive)"
- COMPOUND: "CC(C)C(NC(=O)C(Cc1ccccc1)NC(=O)OC(C)(C)C)C(=O)NCC(=O)OCc1ccccc1 (stereo not drawn) (Boc-Phe-Val-Gly-OBn; configuration not given here)"
  TARGET OF ASSAY: "SNB-75"
  QUANTITY: "GI50"
  RESULT: "20.5 µM (inactive)"
- COMPOUND: "C=CCNC1=C2C[C@@H](C)C[C@H](OC)[C@H](O)[C@@H](C)/C=C(\\C)[C@H](OC(N)=O)[C@@H](OC)/C=C\\C=C(/C)C(=O)NC(=CC1=O)C2=O"
  TARGET OF ASSAY: "SNB-75"
  QUANTITY: "GI50"
  RESULT: "0.0173 µM (active)"
